System: Candida albicans T.A.
assay.info: Protective effect at a single dose of 1.04 μmol/kg against experimental Candida albicans TA infection in mice (Experiment 3)
Assay type: in vivo
assay.setup: 1.04 μmol/kg i.v., n = 5 mice, mice which had died up to 7 days after infection
We begin with a simple list: items and their reported Mean survival day of the mice which died, i.v..
property.name: Mean survival day of the mice which died, i.v. (days)

substance_smiles=CCC(=O)OC[n+]1cnn(C[C@](O)(c2ccc(F)cc2F)[C@@H](C)N2CCN(c3ccc(-n4cnnn4)cc3)C2=O)c1.[Cl-] reported_measurement=4.5
substance_smiles=CC(=O)OC[n+]1cnn(C[C@](O)(c2ccc(F)cc2F)[C@@H](C)N2CCN(c3ccc(-n4cnnn4)cc3)C2=O)c1.[Cl-] reported_measurement=4.5
substance_smiles=CCOC(=O)OC[n+]1cnn(C[C@](O)(c2ccc(F)cc2F)[C@@H](C)N2CCN(c3ccc(-n4cnnn4)cc3)C2=O)c1.[Cl-] reported_measurement=6.0
substance_smiles=CC(=O)OC[n+]1cnn(C[C@](O)(c2ccc(F)cc2F)[C@@H](C)N2CCN(c3ccc(-n4cnnn4)cc3)C2=O)c1.[Br-] reported_measurement=4.0
